Documented Population Apoptotic (%) across a set of compounds
Tested on: HEK-293T
Assay: Multiplex assay against HEK293T
Format: toxicity, cell-based
Settings: human, 48 h, 10 µM, compound concentration 10 uM, replicate 1
In your response, put the unit directly after the numeric value.

Consider the following illustrative entries.
compound=O=C1NC(=O)C(c2cnc3ccccn23)=C1c1cn2c3c(cc(F)cc13)CN(C(=O)N1CCCCC1)CC2 measured_property="Population Apoptotic (%)" assay_value=80%
compound=O=C(Nc1ccc(Cl)cc1)Nc1cccc(-c2cccc(N3CCCC3)n2)c1 measured_property="Population Apoptotic (%)" assay_value=80%
compound="CN1C2CCC1CC(OC(c1ccc(F)cc1)c1ccc(F)cc1)C2.Cl (centres undefined)" measured_property="Population Apoptotic (%)" assay_value=78%
compound=Cc1ccc(C(=O)Nc2cccc(C(F)(F)F)c2)cc1Nc1nc(-c2cccnc2)nc2c1cnn2C measured_property="Population Apoptotic (%)" assay_value=86%
compound=CCN1CCN(Cc2ccc(Nc3ncc(F)c(-c4cc(F)c5nc(C)n(C(C)C)c5c4)n3)nc2)CC1.CS(=O)(=O)O measured_property="Population Apoptotic (%)" assay_value=80%

Incoming: Quick one: Population Apoptotic (%) of `COc1cc(N2CCN(C)CC2)ccc1Nc1ncc2c(n1)N(C)c1ccccc1C(=O)N2C` ?
Outgoing: 69%

Incoming: Try `CN1CCN(C(=O)C(C)(C)c2ccc(C(=O)Nc3cn4cc(-c5ccncc5)ccc4n3)cc2)CC1` next.
Outgoing: 92%

Incoming: Try `O=C(Nc1ccc(-c2ccnc(Nc3ccc(N4CCOCC4)cc3)n2)cc1)[C@@H]1CCCN1` next.
Outgoing: 49%

Incoming: Try `Cc1cn(-c2cc(NC(=O)c3ccc(C)c(Nc4nccc(-c5cccnc5)n4)c3)cc(C(F)(F)F)c2)cn1` next.
Outgoing: 84%

Incoming: Try `Cc1cc(C)c(S(=O)(=O)N(Cc2ccc(-c3cccc(S(C)(=O)=O)c3)cc2)Cc2ccc(C(F)(F)F)o2)c(C)c1` next.
Outgoing: 45%

Incoming: Try CN(C)C(=O)C(CCN1CCC(O)(c2ccc(Cl)cc2)CC1)(c1ccccc1)c1ccccc1.Cl [LOPERAMIDE HYDROCHLORIDE] next.
Outgoing: 85%

Incoming: Try `CCOc1cc(C(=O)N2CCC(N3CCN(C)CC3)CC2)ccc1Nc1ncc2c(n1)N(C1CCCC1)c1ccccc1C(=O)N2C` next.
Outgoing: 90%

Incoming: Try CN1CCC(=C2c3ccccc3CC(=O)c3sccc32)CC1.O=C(O)/C=C/C(=O)O [KETOTIFEN FUMARATE] next.
Outgoing: 71%

Incoming: Try `O=C(Nc1ccc(-n2nc(-c3cccnc3)cc2C(F)(F)F)cn1)c1ccc(-c2ccccc2)c(F)c1` next.
Outgoing: 55%
